assay: Human HepG2 cell viability assay in 384 well format; format: toxicity, cell-based; set-up: dose 125 nL, time 70.5 hour; concentration not given beside the values; conditions: HepG2 cells, read-out: Inhibition
experimental.readout: cytotoxicity at 70.5 h (%)
Give just the numeric value; % need not be written.

Reference set (5 entries):
INSERT INTO measurements (compound, experimental_readout, experimental_value) VALUES
  ('CNC(=O)NC(=O)CN1CCN(CC(F)(F)F)CC1(C)C', 'cytotoxicity at 70.5 h', -4.26),
  ('COCCN1C(=O)CCC12CCCN(c1ncc(F)cn1)CC2 (centres undefined)', 'cytotoxicity at 70.5 h', 1.58),
  ('O=C(N[C@@H]1CCN(C(=O)c2ccc(F)cc2Cl)C[C@H]1O)c1ccccn1', 'cytotoxicity at 70.5 h', -6.49),
  ('CNC(=O)c1ccc(C2CN(C(=O)c3scnc3C)CCO2)nc1 (centres undefined)', 'cytotoxicity at 70.5 h', -3.13),
  ('CCCc1ncc(CNC2(c3ccc(Cl)cc3)CC2)cn1', 'cytotoxicity at 70.5 h', -4.1);

Lookup: I have this compound here, NC(=O)C1CCN(CCc2ccc(NC(=O)C3CCC3)cc2)CC1 , and I need its recorded cytotoxicity at 70.5 h.
Found: -1.87

Lookup: I have this compound here, COc1cc(NCc2c(C)noc2C)c(OC)cc1Cl , and I need its recorded cytotoxicity at 70.5 h.
Found: 10.4

Lookup: I have this compound here, Cc1nc(C)n(C2CCCN(C(=O)c3cc4ccccc4n3C)C2)n1 (centres undefined) , and I need its recorded cytotoxicity at 70.5 h.
Found: -1.56

Lookup: I have this compound here, CC1CCCN(Cc2ccnc(-c3cccnc3)n2)C1 (centres undefined) , and I need its recorded cytotoxicity at 70.5 h.
Found: -13

Lookup: I have this compound here, COCCC(=O)N1CCOCC2(CCN(Cc3cccs3)C2)C1 (centres undefined) , and I need its recorded cytotoxicity at 70.5 h.
Found: -12.3

Lookup: I have this compound here, CCc1noc(CNc2ccc(C(=O)N3CCCC3)cc2C)n1 , and I need its recorded cytotoxicity at 70.5 h.
Found: 10.5

Lookup: I have this compound here, CN(Cc1cccc(C(N)=O)c1)Cc1nc2c(cnn2C)c(=O)[nH]1 , and I need its recorded cytotoxicity at 70.5 h.
Found: -15.8

Lookup: I have this compound here, COc1cc(OC)cc(C(=O)Nc2ncnc3c2CCC3)c1 , and I need its recorded cytotoxicity at 70.5 h.
Found: 59

Lookup: I have this compound here, CCC(C)NS(=O)(=O)Cc1cccc(NC(=O)C2=CCCC2)c1 (centres undefined) , and I need its recorded cytotoxicity at 70.5 h.
Found: -4.4

Lookup: I have this compound here, CN1CCC(CNC(=O)NCc2ccc(N(C)C)cc2)CC1 , and I need its recorded cytotoxicity at 70.5 h.
Found: -2.97

Lookup: I have this compound here, COc1ccccc1CCc1nc(CC2CCN(C)CC2)no1 , and I need its recorded cytotoxicity at 70.5 h.
Found: -2.87

Lookup: I have this compound here, CC(C)(C)c1cnc(CN2CCC[C@H]2CO)o1 , and I need its recorded cytotoxicity at 70.5 h.
Found: 0.665

Lookup: I have this compound here, Cc1cc(NC(=O)NCC(O)COc2ccccc2)n(C)n1 (centres undefined) , and I need its recorded cytotoxicity at 70.5 h.
Found: -11.6
